Entry source: PubChem BioAssay AID588680

- Assay target: M1-family alanyl aminopeptidase (PfM1AAP), Plasmodium falciparum 3D7
- Assay remarks: PfM1AAP enzyme inhibition, dose response, selectivity assay for PfM18AAP inhibitor project, biochemical, QFRET, H-Leu-NHMec substrate (AID 588680)
- Measurement context: recombinant PfM1AAP, H-Leu-NHMec fluorogenic cleavage; at 100 µM (top of the series)
Calls of active or inactive are those of the source.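 The calls were made as follows: active = inhibition of 30% or more at any tested concentration; inactive = the rest.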
Endpoint: inhibition

Worked cases, inhibition given:
[[record]]
compound = "O=C(c1ccco1)N1CCN(Cc2cc(=O)c(O)co2)CC1"
assay_target = "M1-family alanyl aminopeptidase (PfM1AAP), Plasmodium falciparum 3D7"
endpoint = "inhibition"
test_result = "inactive"

[[record]]
compound = "CCC(C)C(=O)Nc1ccccc1N (stereo not drawn)"
assay_target = "M1-family alanyl aminopeptidase (PfM1AAP), Plasmodium falciparum 3D7"
endpoint = "inhibition"
test_result = "inactive"

[[record]]
compound = "COc1cccc(CCNc2c3ccccc3nc3ccccc23)c1"
assay_target = "M1-family alanyl aminopeptidase (PfM1AAP), Plasmodium falciparum 3D7"
endpoint = "inhibition"
test_result = "inactive"

[[record]]
compound = "COc1ccc(CCNC2CCN(Cc3ccccc3)CC2)cc1OC"
assay_target = "M1-family alanyl aminopeptidase (PfM1AAP), Plasmodium falciparum 3D7"
endpoint = "inhibition"
test_result = "inactive"

[[record]]
compound = "COc1ccc(CCNc2ccnc3ccccc23)cc1OC"
assay_target = "M1-family alanyl aminopeptidase (PfM1AAP), Plasmodium falciparum 3D7"
endpoint = "inhibition"
test_result = "inactive"


**Q:** Provide value of inhibition for this record tested with M1-family alanyl aminopeptidase (PfM1AAP), Plasmodium falciparum 3D7: COc1ccc(CCN(C)c2c3ccccc3nc3ccccc23)cc1OC
**A:** inactive

**Q:** State its inhibition on M1-family alanyl aminopeptidase (PfM1AAP), Plasmodium falciparum 3D7: COc1ccc(CCNC2CCN(C)CC2)cc1OC
**A:** inactive

**Q:** Quick check: inhibition on M1-family alanyl aminopeptidase (PfM1AAP), Plasmodium falciparum 3D7, item COc1ccc(CCNc2c3ccccc3nc3ccccc23)cc1OC ?
**A:** inactive

----------
Listing: pIC50 of selected compounds
- Assay target: M1-family alanyl aminopeptidase (PfM1AAP), Plasmodium falciparum 3D7
- Assay remarks: PfM1AAP enzyme inhibition, dose response, selectivity assay for PfM18AAP inhibitor project, biochemical, QFRET, H-Leu-NHMec substrate (AID 588680)
- Measurement context: recombinant PfM1AAP, H-Leu-NHMec fluorogenic cleavage
In plain terms, pIC50 is the concentration in mol/L turned into minus its base-10 logarithm.

**Q:** For the compound CCOc1cccc(-c2nc(-c3ccc(O)c(O)c3)cs2)c1 , what pIC50 is on record?
**A:** 4.40

----------
- Assay target: M1-family alanyl aminopeptidase (PfM1AAP), Plasmodium falciparum 3D7
- Assay remarks: PfM1AAP enzyme inhibition, dose response, selectivity assay for PfM18AAP inhibitor project, biochemical, QFRET, H-Leu-NHMec substrate (AID 588680)
- Measurement context: recombinant PfM1AAP, H-Leu-NHMec fluorogenic cleavage
Reported IC50 is given for each of the following molecules.

[[record]]
molecule = "O=c1cc(CN2CCN(Cc3ccccc3)CC2)c2ccc(O)c(O)c2o1"
assay_target = "M1-family alanyl aminopeptidase (PfM1AAP), Plasmodium falciparum 3D7"
endpoint = "IC50"
test_result = "90.5 µM"

[[record]]
molecule = "CN(CCc1ccc(O)c(O)c1)c1ccnc2ccccc12"
assay_target = "M1-family alanyl aminopeptidase (PfM1AAP), Plasmodium falciparum 3D7"
endpoint = "IC50"
test_result = "19.7 µM"

[[record]]
molecule = "Oc1ccc(CCNc2cccc3ccccc23)cc1O"
assay_target = "M1-family alanyl aminopeptidase (PfM1AAP), Plasmodium falciparum 3D7"
endpoint = "IC50"
test_result = "29.9 µM"


**Q:** For the record CN(CCc1ccc(O)c(O)c1)c1ccncc1 , what value of IC50 is listed for M1-family alanyl aminopeptidase (PfM1AAP), Plasmodium falciparum 3D7?
**A:** 45.2 µM

**Q:** For M1-family alanyl aminopeptidase (PfM1AAP), Plasmodium falciparum 3D7, provide IC50 of Cc1c(-c2ccccc2)[nH]c(-c2ccc(O)c(O)c2)[n+]1O please.
**A:** 54.3 µM

**Q:** Reported IC50 for M1-family alanyl aminopeptidase (PfM1AAP), Plasmodium falciparum 3D7, given Oc1ccc(CCNc2cncc3ccccc23)cc1O ?
**A:** 35.7 µM

**Q:** API: value(readout= IC50, system= M1-family alanyl aminopeptidase (PfM1AAP), Plasmodium falciparum 3D7, query= CCC(C)c1ccc(N)c(O)c1 (stereo not given) )
**A:** 42.2 µM

**Q:** # get_value(readout= IC50, system= M1-family alanyl aminopeptidase (PfM1AAP), Plasmodium falciparum 3D7) for Cc1nc(NCCc2ccc(O)c(O)c2)c2c3c(sc2n1)CCC3
**A:** 40 µM

**Q:** Give IC50 (M1-family alanyl aminopeptidase (PfM1AAP), Plasmodium falciparum 3D7) of the following molecule: Oc1ccc(CCNC(c2ccccc2)c2ccccc2)cc1O
**A:** 55.1 µM

**Q:** State its IC50 on M1-family alanyl aminopeptidase (PfM1AAP), Plasmodium falciparum 3D7: Oc1ccc(CCN2CCc3ccccc3C2)cc1O
**A:** 77 µM

**Q:** Param readout = IC50; param system = M1-family alanyl aminopeptidase (PfM1AAP), Plasmodium falciparum 3D7; param query = Nc1cc(C(=O)c2ccccc2)ccc1O ; response: value
**A:** 40.3 µM

**Q:** Provide the documented IC50 with M1-family alanyl aminopeptidase (PfM1AAP), Plasmodium falciparum 3D7 as the system for Cc1ccc(-c2nc(-c3ccc(O)c(O)c3)cs2)cc1
**A:** 37.1 µM

**Q:** Recall the recorded IC50 for O=c1ccc2cc(O)c(O)cc2o1 with M1-family alanyl aminopeptidase (PfM1AAP), Plasmodium falciparum 3D7 and state it.
**A:** 48.2 µM

**Q:** Return IC50 measured with M1-family alanyl aminopeptidase (PfM1AAP), Plasmodium falciparum 3D7 given this molecule: Oc1ccc(CCNc2ccc3ccccc3c2)cc1O
**A:** 34.6 µM

**Q:** Checklist item: IC50 tested on M1-family alanyl aminopeptidase (PfM1AAP), Plasmodium falciparum 3D7, entry Oc1ccc(CCNc2c3c(nc4ccccc24)CCCC3)cc1O , value?
**A:** 35 µM

**Q:** Hi! What's the reported IC50 for O=C1c2ccc3c4c(ccc(c24)C(=O)N1O)CC3 on M1-family alanyl aminopeptidase (PfM1AAP), Plasmodium falciparum 3D7?
**A:** 76.7 µM

----------
- Assay target: M1-family alanyl aminopeptidase (PfM1AAP), Plasmodium falciparum 3D7
- Assay remarks: PfM1AAP enzyme inhibition, dose response, selectivity assay for PfM18AAP inhibitor project, biochemical, QFRET, H-Leu-NHMec substrate (AID 588680)
- Measurement context: recombinant PfM1AAP, H-Leu-NHMec fluorogenic cleavage
IC50 for assorted compounds

Please review the entries below; each comes with its answer.
[[record]]
molecule = "Oc1ccc(-c2csc(Cc3cc4ccccc4[nH]3)n2)cc1O"
assay_target = "M1-family alanyl aminopeptidase (PfM1AAP), Plasmodium falciparum 3D7"
test_result = "19.9 µM"

[[record]]
molecule = "CC(C)(C)C(=O)OCc1nc(-c2ccc(O)c(O)c2)cs1"
assay_target = "M1-family alanyl aminopeptidase (PfM1AAP), Plasmodium falciparum 3D7"
test_result = "41.2 µM"

[[record]]
molecule = "O=S1(=O)c2ccccc2-c2cc(-c3nc(-c4ccc(O)c(O)c4)[nH]c3-c3ccccc3)ccc21"
assay_target = "M1-family alanyl aminopeptidase (PfM1AAP), Plasmodium falciparum 3D7"
test_result = "39.9 µM"


Now for a further compound.
**Q:** Looking for the measured IC50 of O=C1OCCN1CCc1nc(-c2ccc(O)c(O)c2)cs1 , can you help?
**A:** 37.7 µM
